Values from PubChem BioAssay (NCI)

test system: MDA-MB-468 breast; assay: NCI-60 one-dose screen, 48 h (100 = growth as untreated, 0 = no growth, -100 = all killed); conditions: 10 µM unless noted
About 83,000 compounds went through this panel and 20% of them were active in at least one assay; those are over-represented in the sample as a whole. Active and inactive are the calls of the source. How the source made its calls: active means growth percent below 10; inactive means the rest.
Please go through the items and note down their growth.

// "O=C(OCc1ccc2c(Cl)cc(Cl)c(O)c2n1)N1CCNCC1" : growth value = 33.6% (inactive)

// "CCCCCc1c(C)[nH]c(/C=C2\N=C(c3ccc[nH]3)C=C2Oc2ccc(OC)cc2)c1C" : growth value = -54.8% [100 µM] (active)

// "C=CCn1c(SCC(=O)c2ccccc2)nnc1-c1c[nH]c2ccccc12" : growth value = 87.7% (inactive)

// "O=C1c2cccc(NCCN=Cc3cc(O)ccc3O)c2C(=O)c2c(NCCN=Cc3cc(O)ccc3O)cccc21" : growth value = -85.8% (active)

// "O=C(Nc1ncc(Cc2ccccc2)s1)c1cc(-c2ccccc2)nc2ccccc12" : growth value = 103% (inactive)

// "O=C(N/N=C/c1cc2ccccc2nc1Cl)c1cc(-c2nc3ccccc3[nH]2)nc2ccccc12" : growth value = 98.5% (inactive)

// "CC1=C(SCC(=O)OCCCCCC(C)C)C(=O)c2ccccc2C1=O" : growth value = 65.5% (inactive)

// "C/C(C=O)=C\c1ccc2c(c1)OCO2" : growth value = 94.8% (inactive)

// CC(C)CC1NC(C)(C)CO1 (stereo not given) : growth value = 108% (inactive)

// COc1ccc2c(c1)C(C)Cc1c(Cl)ncnc1N2C (stereo not given) : growth value = -47.7% (active)

// CC(C)[C@@]12C[C@@H](OC(=O)C3CO3)[C@@](C)(O1)[C@@H]1CC[C@@H](C)[C@H]1[C@@H]2OC(=O)/C=C/c1ccccc1 (stereo not given in full) : growth value = 95.4% (inactive)

// "C=C(C)[C@@H]1CC[C@]2(C(=O)ON)CC[C@]3(C)[C@H](CC[C@@H]4[C@@]5(C)C/C(=C/c6ccc(Br)cc6)C(=O)C(C)(C)[C@@H]5CC[C@]43C)[C@@H]12" : growth value = 73.2% (inactive)

// "Cc1cc(C(=O)Nc2cc(Nc3ncccc3-c3ncnc4nc[nH]c34)ccc2F)cc(C(F)(F)F)c1" : growth value = 93.6% (inactive)

// COc1cc2c(C#N)n3c(c2cc1OC)C(=O)C(c1ccccc1)Oc1ccccc1-3 (stereo not given) : growth value = 74.5% (inactive)

// "CCNC(=O)c1[nH]cc(-c2ccc(OC)cc2)c1-c1cc(OC)cc(OC)c1" : growth value = 76.2% (inactive)

// "CNC(=O)c1cc(N2CCc3cc(NC(=O)Nc4ccc(N5CCN(C)CC5)c(C(F)(F)F)c4)ccc32)ccn1" : growth value = 77.9% (inactive)

// "CCCCCCCCCCN1CCC(N2CCCCC2)CC1" : growth value = -73.2% (active)

// "Cc1ccc(-c2c3c(N)c4c(nc3nc3c2c(C)nn3-c2ccccc2)CCC4)cc1" : growth value = 53% (inactive)

// "CSc1nn(-c2ccccc2)c2ncnc(Oc3ccc(C)cc3)c12" : growth value = 93.2% (inactive)

// "O=C(c1cccc(Br)c1)N1CCN(c2ccnc3cc(Cl)ccc23)CC1" : growth value = 66% (inactive)

// "CCCN1CC(c2ccc(OC)c(OC)c2)=C(c2cn(C(=O)OCC)c3ccccc23)C1=O" : growth value = 6.47% (active)

// "COc1ccc(/C=N\Nc2ccc([N+](=O)[O-])cn2)cc1OC" : growth value = 79.1% (inactive)

// "Cc1nn(-c2ccc(Br)cc2)c2nc3c(nc12)C(=O)C(=O)c1ccccc1-3" : growth value = 95.1% (inactive)

// "Clc1cccc(-c2nc(-c3cccs3)no2)c1" : growth value = 3.37% (active)

// "FC(F)(F)c1nc2c(NCc3ccc(-c4ccccc4)cc3)cccc2[nH]1" : growth value = 70.2% (inactive)

// "Cc1ccc(/C=C2\CN(C(=O)C(Cl)Cl)C/C(=C\c3ccc(C)cc3)C2=O)cc1" : growth value = -65.9% (active)

// "Cc1ccc(-c2csc(NC(=O)N3CCN(c4cc5c(cc4F)c(=O)c(C(=O)O)cn5C4CC4)CC3)n2)cc1" : growth value = -5.11% (active)

// "COc1cc(NC(N)=NCCC(C)(C)Oc2ccc(C(F)(F)F)cc2)ncc1C#N" : growth value = -84.4% (active)

// "CNC(=O)c1c(NC(=O)c2ccc(F)cc2F)sc2c1CCC(=O)C2" : growth value = -15.5% (active)

// "N#C/C(=C\c1ccc([N+](=O)[O-])s1)c1nc2cc(Br)ccc2s1" : growth value = 32.4% (inactive)

// "O=C(C[C@]1(O)C(=O)Nc2ccccc21)c1cccc(C(F)(F)F)c1" : growth value = 83.9% (inactive)

// CCC(C)N(CCNc1cc(OC)cc2cccnc12)CC(C)C (stereo not given) : growth value = -52.5% (active)

// "O=[N+]([O-])c1ccc2nc(N/N=C/c3ccc(O)cc3)sc2c1" : growth value = 64.2% (inactive)

// "O=c1ccccc(-c2ccc(Br)cc2)c1O" : growth value = 12.3% (inactive)

// CN(C)CC1C(=O)O[C@H]2[C@H]1CC/C(COC(=O)c1cc3ccccc3[nH]1)=C\CC[C@@]1(C)O[C@@H]21 (stereo not given in full) : growth value = -59.8% (active)

// "FC(F)(F)c1cc(Br)cc(-c2cc(-c3ccc4c(c3)OCCO4)[nH]n2)c1" : growth value = 40.6% (inactive)

// "CCN(C(=O)N1CCN(c2cc3c(cc2F)c(=O)c(C(=O)O)cn3C2CC2)CC1)c1nc(-c2ccccc2)cs1" : growth value = 13% (inactive)

// "CN1CCN(c2ccc(-c3ccc4ncc(C#N)c(Nc5ccc(F)c(Cl)c5)c4c3)cn2)CC1" : growth value = 10.6% (inactive)

// "Clc1ccc2c(c1)C[C@H]1C[C@@H](c3cccs3)N2O1" : growth value = 106% (inactive)

// "FC(F)(F)c1cc(Nc2ccc3c(OCCCN4CCOCC4)cccc3n2)ccc1Cl" : growth value = 38.3% (inactive)
